Here the recorded pKi is given for each entry.
Measured On: human plasma kallikrein (Homo sapiens (Human))
Sequence (P03952 391-638): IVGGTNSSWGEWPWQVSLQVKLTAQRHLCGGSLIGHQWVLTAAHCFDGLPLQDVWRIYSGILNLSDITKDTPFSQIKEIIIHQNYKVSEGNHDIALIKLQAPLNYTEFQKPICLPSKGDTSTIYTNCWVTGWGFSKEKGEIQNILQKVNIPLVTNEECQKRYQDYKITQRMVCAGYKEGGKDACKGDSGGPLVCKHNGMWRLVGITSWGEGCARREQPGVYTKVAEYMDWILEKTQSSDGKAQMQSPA
Sequence (P03952 20-390 partner): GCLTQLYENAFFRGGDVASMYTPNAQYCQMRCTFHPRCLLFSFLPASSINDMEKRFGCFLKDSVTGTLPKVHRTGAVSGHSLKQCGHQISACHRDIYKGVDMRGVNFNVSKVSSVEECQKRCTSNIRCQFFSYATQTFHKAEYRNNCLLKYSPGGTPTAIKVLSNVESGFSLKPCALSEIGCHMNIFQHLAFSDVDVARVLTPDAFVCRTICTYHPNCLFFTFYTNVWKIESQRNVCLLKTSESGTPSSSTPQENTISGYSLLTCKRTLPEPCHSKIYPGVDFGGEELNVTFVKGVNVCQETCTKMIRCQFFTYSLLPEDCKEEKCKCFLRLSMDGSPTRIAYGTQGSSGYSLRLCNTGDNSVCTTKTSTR
Method Summary: Plasma Kallikrein Activity Assay (chromogenic substrate S2302)
Condition: 2 nM kallikrein, 80 μM S2302, 30° C., pH 7.8; Cheng-Prusoff
pKi: −log10 of the molar value.

Compound	Measured On	pKi
C[C@H]1C[C@H](C(=O)Nc2cc(C(N)(CCC3CC3)c3ccncc3)ccc2F)N(C(=O)Nc2ccc(Cl)cn2)C1 (stereo partly drawn) [Compound 48d]	human plasma kallikrein (Homo sapiens (Human))	> 7.30
CNC(CCC1CC1)(c1ccncc1)c1ccc(F)c(NC(=O)[C@H]2C[C@](O)(c3ccccc3)CN2C(=O)Nc2ccc(Cl)cn2)c1 (stereo partly drawn) [Compound 41a]	human plasma kallikrein (Homo sapiens (Human))	> 7.30
CO[C@H]1C[C@@H](C(=O)Nc2cc(C(CCC3CC3)(N[S@+]([O-])C(C)(C)C)c3cccc(C#N)c3)ccc2F)N(C(=O)Nc2ccc(Cl)cc2)C1 (stereo partly drawn) [Compound 11d]	human plasma kallikrein (Homo sapiens (Human))	< 7.00
CO[C@]1(c2ccccc2)C[C@H](C(=O)Nc2cc(C(N)(CCC3CC3)c3ccccn3)ccc2F)N(C(=O)Nc2ccc(Cl)cn2)C1 (stereo partly drawn) [Compound 35a]	human plasma kallikrein (Homo sapiens (Human))	7.00 to 7.30
CC(C)(C)[S@@+]([O-])NC(CCC1CC1)(c1cccc(C#N)c1)c1ccc(F)c(NC(=O)[C@H]2C[C@@H](O)CN2C(=O)Nc2ccc(Cl)cc2)c1 (stereo partly drawn)	human plasma kallikrein (Homo sapiens (Human))	7.00 to 7.30
NC(CCC1CC1)(c1ccncc1)c1ccc(F)c(NC(=O)[C@H]2C[C@H](c3ccccc3)CN2C(=O)Nc2ccc(Cl)cn2)c1 (stereo partly drawn) [Compound 47d]	human plasma kallikrein (Homo sapiens (Human))	7.00 to 7.30
